# Tested on: IGROV1 complex spheroids (HUVEC, MSC), viability % test/control
# assay.text: Anticancer human tumor IGROV1 cell line growth inhibition [GQUAD];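 note: spheroids exposed to compounds for 7 days before readout; 100% = DMSO vehicle control viability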
# measurement.setup: second compound 10 µM; first compound 0.316 µM; active compounds read low
Measured viability, T/C, listed per entry for reference.

compound	study.system	output.unit	viability, T/C
CCCS(=O)(=O)Nc1ccc(F)c(C(=O)c2c[nH]c3ncc(-c4ccc(Cl)cc4)cc23)c1F + CN(C)c1ccc(Nc2c3ccc(NC(=O)CCN4CCCC4)cc3nc3cc(NC(=O)CCN4CCCC4)ccc23)cc1	IGROV1 complex spheroids (HUVEC, MSC), viability % test/control	%	60.7
COc1ncnc(C2CC2)c1-c1ncc2cnn(Cc3ccc(-c4nc(C(F)(F)F)cn4C(C)C)cc3)c2n1 + Cc1cnc(CNC(=O)c2c(=O)c3ccc(N4CCCN(C)CC4)nc3n3c2sc2ccccc23)cn1	IGROV1 complex spheroids (HUVEC, MSC), viability % test/control	%	8.36
CC(C)(O)C1CCC(Nc2ccc3ncc(-c4cccc(C(F)(F)F)c4)n3n2)CC1 (stereo unspecified) + CN(C)c1ccc(Nc2c3ccc(NC(=O)CCN4CCCC4)cc3nc3cc(NC(=O)CCN4CCCC4)ccc23)cc1	IGROV1 complex spheroids (HUVEC, MSC), viability % test/control	%	37.5
O=C(c1cc(Cc2n[nH]c(=O)c3ccccc23)ccc1F)N1CCN(C(=O)C2CC2)CC1 + Cc1cnc(CNC(=O)c2c(=O)c3ccc(N4CCCN(C)CC4)nc3n3c2sc2ccccc23)cn1	IGROV1 complex spheroids (HUVEC, MSC), viability % test/control	%	9.01
CC[C@@]1(O)C(=O)OCc2c1cc1n(c2=O)Cc2cc3c(CN(C)C)c(O)ccc3nc2-1 + Cc1cnc(CNC(=O)c2c(=O)c3ccc(N4CCCN(C)CC4)nc3n3c2sc2ccccc23)cn1	IGROV1 complex spheroids (HUVEC, MSC), viability % test/control	%	9.32
CC1COCCN1c1cc(-c2ccnn2C)c2ccnc(-c3ccn[nH]3)c2n1 (stereo unspecified) + Cc1cnc(CNC(=O)c2c(=O)c3ccc(N4CCCN(C)CC4)nc3n3c2sc2ccccc23)cn1	IGROV1 complex spheroids (HUVEC, MSC), viability % test/control	%	7.42
COc1cc(C2c3cc4c(cc3C(OC3OC5COC(C)OC5C(O)C3O)C3COC(=O)C23)OCO4)cc(OC)c1O (stereo unspecified) + Cc1cnc(CNC(=O)c2c(=O)c3ccc(N4CCCN(C)CC4)nc3n3c2sc2ccccc23)cn1	IGROV1 complex spheroids (HUVEC, MSC), viability % test/control	%	10.7
CC1COCCN1c1cc(C2(O)CC3CCC(C2)O3)c2cnn(-c3ccn[nH]3)c2n1 (stereo unspecified) + Cc1cnc(CNC(=O)c2c(=O)c3ccc(N4CCCN(C)CC4)nc3n3c2sc2ccccc23)cn1	IGROV1 complex spheroids (HUVEC, MSC), viability % test/control	%	4.3
Cc1[nH]c2ccccc2c1CCNCc1ccc(/C=C/C(=O)NO)cc1 + Cc1[nH]c2ccc(F)cc2c1-c1nc2c3cccnc3c3ncccc3c2[nH]1	IGROV1 complex spheroids (HUVEC, MSC), viability % test/control	%	0.17
Nc1ccn(C2OC(CO)C(O)C2(F)F)c(=O)n1 (stereo unspecified) + CN(C)c1ccc(Nc2c3ccc(NC(=O)CCN4CCCC4)cc3nc3cc(NC(=O)CCN4CCCC4)ccc23)cc1	IGROV1 complex spheroids (HUVEC, MSC), viability % test/control	%	4.16
Cc1cccc(N(C)C(=O)C2C(O)CCN2c2nc(C)cc(C(F)(F)F)c2C#N)c1 (stereo unspecified) + Cc1cnc(CNC(=O)c2c(=O)c3ccc(N4CCCN(C)CC4)nc3n3c2sc2ccccc23)cn1	IGROV1 complex spheroids (HUVEC, MSC), viability % test/control	%	7.75

Cited source: PubChem BioAssay AID2060486
